The measured values listed here are drawn from ChEMBL document CHEMBL4145506.

Tested on: NCI-H460
ASSAY_OVERVIEW: Antiproliferative activity against human H460 cells after 72 hrs by MTT assay
Format: functional, cell-based
RUN_CONDITIONS: NCI-H460, 72 h
pIC50: −log10 of the molar value.
MEASURED_PARAMETER: pIC50

Illustrative cases are given below, each with its answer.
SMILES: COc1cc(-c2cc(-c3ccc(F)cc3)nc(-n3cccc3CN(C)C)c2C#N)cc(OC)c1OC
pIC50: 6.51
--
SMILES: CCNCc1cccn1-c1nc(-c2ccc(F)cc2F)cc(-c2cc(OC)c(OC)c(OC)c2)c1C#N
pIC50: 5.54
--
SMILES: COc1cc(-c2cc(-c3ccc(F)cc3)nc(-n3cccc3CN3CCC(C)CC3)c2C#N)cc(OC)c1OC
pIC50: 7.15
--
SMILES: COc1cc(-c2cc(-c3ccc(F)cc3)nc(-n3cccc3CN3CCN(C)CC3)c2C#N)cc(OC)c1OC
pIC50: 7.30

a = COc1cc(-c2cc(-c3ccc(F)cc3F)nc(-n3cccc3CNC(C)C)c2C#N)cc(OC)c1OC
b = COc1cc(-c2cc(-c3ccc(F)cc3)nc(-n3cccc3CN3CCCC3)c2C#N)cc(OC)c1OC
c = COc1ccc(-c2cc(-c3ccc(F)cc3)nc(-n3cccc3CN3CCN(C)CC3)c2C#N)c(OC)c1OC
d = CCNCc1cccn1-c1nc(-c2ccc(F)cc2)cc(-c2cc(OC)c(OC)c(OC)c2)c1C#N
e = CNCc1cccn1-c1nc(-c2ccc(F)cc2)cc(-c2ccc(OC)c(OC)c2OC)c1C#N
Q) Ascending by pIC50, please. Would you mind listing the labels in the order asked for?
A) b, a, d, e, c
(b: 5.08, a: 5.36, d: 5.81, e: 6.59, c: 6.96)

a = COc1cc(-c2cc(-c3ccc(F)cc3F)nc(-n3cccc3CN3CCCC3)c2C#N)cc(OC)c1OC
b = COc1cc(-c2cc(-c3ccc(F)cc3F)nc(-n3cccc3CN3CCOCC3)c2C#N)cc(OC)c1OC
Q) When the recorded pIC50 values are compared, which is smaller: that of a or that of b ? Kindly give the label for the entry you pick.
A) b
(b: 4.90, a: 5.37)

A = COc1ccc(-c2cc(-c3ccc(F)cc3)nc(-n3cccc3CN3CCC(C)CC3)c2C#N)c(OC)c1OC
B = CNCc1cccn1-c1nc(-c2ccc(F)cc2)cc(-c2cc(OC)c(OC)c(OC)c2)c1C#N
Q) Compare reported pIC50 values for A and B . Which is lower? Choose, then provide that item's label.
A) A
(A: 5.41, B: 7.22)

---

Test system: A549
ASSAY_OVERVIEW: cells
RUN_CONDITIONS: Homo sapiens, A549, 72 h
Description: Antiproliferative activity against human A549 cells after 72 hrs by MTT assay
pIC50: −log10 of the molar value.
MEASURED_PARAMETER: pIC50

For orientation, consider the following solved cases.
SMILES: COc1cc(-c2cc(-c3ccc(F)cc3F)nc(-n3cccc3CN3CCCC3)c2C#N)cc(OC)c1OC
VAL: 4.96

SMILES: CNCc1cccn1-c1nc(-c2ccc(F)cc2)cc(-c2ccc(OC)c(OC)c2OC)c1C#N
VAL: 4.84

SMILES: COc1cc([C@H]2C(C#N)=C(N)Oc3c2ccc(N)c3N)cc(Br)c1OC
VAL: 6.41

SMILES: COc1cc(-c2cc(-c3ccc(F)cc3F)nc(-n3cccc3CN(C)C)c2C#N)cc(OC)c1OC
VAL: 4.97

SMILES: COc1ccc(-c2cc(-c3ccc(F)cc3)nc(-n3cccc3CN(C)C)c2C#N)c(OC)c1OC
VAL: 4.90

1 = COc1cc(-c2cc(-c3ccc(F)cc3F)nc(-n3cccc3CNC(C)C)c2C#N)cc(OC)c1OC
2 = COc1cc(-c2cc(-c3ccc(F)cc3)nc(-n3cccc3CNC(C)C)c2C#N)cc(OC)c1OC
3 = CCNCc1cccn1-c1nc(-c2ccc(F)cc2F)cc(-c2cc(OC)c(OC)c(OC)c2)c1C#N
4 = COc1cc(-c2cc(-c3ccc(F)cc3)nc(-n3cccc3CN(C)C)c2C#N)cc(OC)c1OC
Q) rank_up(items): orders items by reported pIC50 in ascending numerical order. State the ranking by listing the labels in the requested order.
A) 1, 2, 3, 4
(1: 4.80, 2: 5.08, 3: 5.39, 4: 6.77)

---

System: A549
ASSAY_OVERVIEW: cells
RUN_CONDITIONS: Homo sapiens, A549, 72 h
pIC50: −log10 of the molar value.
MEASURED_PARAMETER: pIC50

SMILES: CNCc1cccn1-c1nc(-c2ccc(F)cc2F)cc(-c2cc(OC)c(OC)c(OC)c2)c1C#N
TARGET_OR_SYSTEM: A549
MEASURED_PARAMETER: pIC50
VAL: 5.02
--
SMILES: COc1ccc(-c2cc(-c3ccc(F)cc3)nc(-n3cccc3CN3CCN(C)CC3)c2C#N)c(OC)c1OC
TARGET_OR_SYSTEM: A549
MEASURED_PARAMETER: pIC50
VAL: 5.34
--
SMILES: COc1cc(-c2cc(-c3ccc(F)cc3)nc(-n3cccc3CN3CCCC3)c2C#N)cc(OC)c1OC
TARGET_OR_SYSTEM: A549
MEASURED_PARAMETER: pIC50
VAL: 4.96
--
SMILES: COc1cc(-c2cc(-c3ccc(F)cc3F)nc(-n3cccc3CN3CCN(C)CC3)c2C#N)cc(OC)c1OC
TARGET_OR_SYSTEM: A549
MEASURED_PARAMETER: pIC50
VAL: 5.33
--
SMILES: COc1cc(-c2cc(-c3ccc(F)cc3F)nc(-n3cccc3CN3CCOCC3)c2C#N)cc(OC)c1OC
TARGET_OR_SYSTEM: A549
MEASURED_PARAMETER: pIC50
VAL: 4.96
--
SMILES: COc1ccc(-c2cc(-c3ccc(F)cc3)nc(-n3cccc3CN3CCC(C)CC3)c2C#N)c(OC)c1OC
TARGET_OR_SYSTEM: A549
MEASURED_PARAMETER: pIC50
VAL: 5.16
--
SMILES: COc1ccc(/C=C\c2cc(OC)c(OC)c(OC)c2)cc1O
TARGET_OR_SYSTEM: A549
MEASURED_PARAMETER: pIC50
VAL: 6.35

I = COc1cc(-c2cc(-c3ccc(F)cc3)nc(-n3cccc3)c2C#N)cc(OC)c1OC
II = COc1cc(-c2cc(-c3ccc(F)cc3F)nc(-n3cccc3CN3CCC(C)CC3)c2C#N)cc(OC)c1OC
III = CNCc1cccn1-c1nc(-c2ccc(F)cc2)cc(-c2cc(OC)c(OC)c(OC)c2)c1C#N
IV = CCNCc1cccn1-c1nc(-c2ccc(F)cc2)cc(-c2cc(OC)c(OC)c(OC)c2)c1C#N
Q) Form: Sort by [pIC50] Order [ ascending ] Respond with an ordered listing of the labels, as requested.
A) I, IV, II, III

---

Test system: NCI-H460
ASSAY_OVERVIEW: Antiproliferative activity against human H460 cells after 72 hrs by MTT assay
Format: functional, cell-based
RUN_CONDITIONS: NCI-H460, 72 h
MEASURED_PARAMETER: IC50 (µM)

Before answering, review these 5 worked examples.
SMILES: COc1cc([C@H]2C(C#N)=C(N)Oc3c2ccc(N)c3N)cc(Br)c1OC
TARGET_OR_SYSTEM: NCI-H460
VAL: 0.03

SMILES: COc1cc(-c2cc(-c3ccc(F)cc3F)nc(-n3cccc3CN3CCN(C)CC3)c2C#N)cc(OC)c1OC
TARGET_OR_SYSTEM: NCI-H460
VAL: 4.53

SMILES: COc1cc(-c2cc(-c3ccc(F)cc3F)nc(-n3cccc3CN(C)C)c2C#N)cc(OC)c1OC
TARGET_OR_SYSTEM: NCI-H460
VAL: 6.18

SMILES: COc1ccc(-c2cc(-c3ccc(F)cc3)nc(-n3cccc3CN(C)C)c2C#N)c(OC)c1OC
TARGET_OR_SYSTEM: NCI-H460
VAL: 5.77

SMILES: COc1cc(-c2cc(-c3ccc(F)cc3)nc(-n3cccc3CN3CCOCC3)c2C#N)cc(OC)c1OC
TARGET_OR_SYSTEM: NCI-H460
VAL: 5.56

P = COc1cc(-c2cc(-c3ccc(F)cc3F)nc(-n3cccc3CN3CCC(C)CC3)c2C#N)cc(OC)c1OC
Q = COc1cc(-c2cc(-c3ccc(F)cc3)nc(-n3cccc3)c2C#N)cc(OC)c1OC
R = COc1cc(-c2cc(-c3ccc(F)cc3)nc(-n3cccc3CNC(C)C)c2C#N)cc(OC)c1OC
S = CNCc1cccn1-c1nc(-c2ccc(F)cc2F)cc(-c2cc(OC)c(OC)c(OC)c2)c1C#N
Q) Rank the 4 molecules: largest IC50 first, smallest last. Field: ranking. Enter the labels in the order requested.
A) Q, P, S, R
